# Test system: HuH-7 replicon cells 5–15 and 9–13 (HCV replication)
# experimentalDetails: Inhibition of viral replication in HuH-7 replicon cells (HCV RNA / GAPDH RNA by multiplex RT-PCR)
# Assay type: cell-based
# conditionInfo: Hepatitis C virus, Huh-7, 72 h
observable: IC50

Q: Look up and state reported IC50 for O=C(CC1CC2CCC1C2)N/N=C/c1ccccc1OS(=O)(=O)c1ccc(C(F)(F)F)cc1 (stereo not shown)
Ans: < 5 µM
